All values here come from ChEMBL document CHEMBL1201862.

# System: SW-620
# Procedure Text: NCI tumour cell line growth inhibition, 48 h
Calls of active or inactive are those of the source. Cut-off read from the data, not from the text of the source: active = GI50 up to about 1.1 µM and inactive = higher.
Readout Kind: GI50

COC(=O)c1c(O)ccc2c1c1c(n2C)C(=O)c2ccccc2C1=O ... 59.4 µM (inactive)
COc1cc(C2SCC(=O)N2c2cc(Cl)c(Cl)cc2Cl)cc(OC)c1OC (stereo not given) ... 82 µM (inactive)
O=c1c2c(nc3[nH]ccn13)CCC2 ... > 10 µM (inactive)
CN1CCOC(c2ccc(Cl)cc2)O1 (stereo not given) ... > 100 µM (inactive)

Please supply GI50 for each of the following items, keeping them in order.
1. CN1C(=O)C2C3C=C4c5ccccc5N(c5ccccc5)C4(C2C1=O)[C@H]1C(=O)N(C)C(=O)[C@@H]31 (stereo not given in full)
2. CN(C(=O)C12C3C4C1C1C2C3C41C(=O)N(C)C(C)(C)C)C(C)(C)C (stereo not given)
3. O=C(CSc1ncnc2[nH]cnc12)c1ccccc1
4. COc1nc2ccc(COc3ccc(C(=O)NC(CCC(=O)O)C(=O)O)cc3)cc2nc1OC (stereo not given)

Response:
> 100 µM (inactive)
> 50 µM (inactive)
> 100 µM (inactive)
> 10 µM (inactive)

====

Field: GI50. Provide a value for each of the compounds that follow.
# Tested on: M14
# Procedure Text: NCI tumour cell line growth inhibition, 48 h
The source made the active and inactive calls. Rule as the data show it: active = GI50 up to about 1.1 µM and inactive = higher.

COC(=O)C(Cc1c[nH]c2ccccc12)NP(=O)(O)OCC1OC(n2cc(Br)c(=O)[nH]c2=O)CC1O (centres undefined) ... > 100 µM (inactive)
N#CC(C(=O)CCCC(=O)Nc1ccc(Cl)cc1Cl)c1ccc(Cl)cc1 (centres undefined) ... > 100 µM (inactive)
CC1(C)C=C(/C=C2/N(S(=O)(=O)C(F)(F)F)C(/C=C3/N(S(=O)(=O)C(F)(F)F)C(C)(C#N)CC3(C)C)=CC2(C)C)N=C1/C=C1/CC(C)(C)C(=O)N1 (centres undefined) ... 29.3 µM (inactive)

Next compound, GI50 to be filled in.
Prompt: Suppose we examine the compound `O=C1N/C(=N/N=C\c2ccccc2)N/C1=C/c1ccc(Cl)cc1` ; what GI50 value has been reported?
Response: 37.4 µM (inactive)

====

# Tested on: NCI-H23
# Procedure Text: NCI tumour cell line growth inhibition, 48 h
The source made the active and inactive calls. Cut-off read from the data, not from the text of the source: active = GI50 up to about 1.1 µM and inactive = higher.
Readout Kind: GI50

Here's what some known entries look like.
COc1cccc(NC(=O)CC(=O)N2N=C(N(CCC#N)c3ccccc3C)CC2c2ccccc2)c1 (stereo unspecified) ... > 100 µM (inactive)
CCOC(=O)c1ccc2c(=O)n3c(C(=O)OCC)ccc3c(=O)n12 ... > 100 µM (inactive)
COc1ccc2oc(-c3ccncc3)cc(=O)c2c1 ... > 100 µM (inactive)
C[n+]1c2ccccc2c(CNC(CS)C(=O)O)c2ccccc21 (stereo unspecified) ... 25.9 µM (inactive)

Please supply GI50 for each of the following items, keeping them in order.
1. C=CCN(c1cc(OC)c2[nH]c(C(=O)O)c(C)c2c1[N+](=O)[O-])S(C)(=O)=O
2. N=C(CC/C(N)=N/O)NO
3. CCOC(=O)C1(C/C=C\CBr)CCCCCCC1=O (stereo unspecified)
4. Cc1cc(S(=O)(=O)Nc2nc3ccccc3nc2-c2ccc(Cl)cc2)c(S)cc1Cl
5. CC(CO)(CO)Nc1ncnc2ccccc12
6. O=c1c2cc(S(=O)(=O)O)ccc2nc(COc2ccc(Oc3ccc(Cl)cc3Cl)cc2)n1-c1ccc(Cl)cc1Oc1c(Cl)cccc1Cl
7. COc1cc2cc3c4c(cc(OC)c(OC)c4c2cc1OC)CCN3C

Response:
["> 100 µM (inactive)", "> 100 µM (inactive)", "> 100 µM (inactive)", "18.5 µM (inactive)", "> 100 µM (inactive)", "24.2 µM (inactive)", "12.8 µM (inactive)"]

====

Field: GI50. Provide a value for each of the compounds that follow.
# Tested on: RPMI-8226
# Procedure Text: NCI tumour cell line growth inhibition, 48 h
Calls of active or inactive are those of the source. Rule as the data show it: active = GI50 up to about 1.1 µM and inactive = higher.

O=C(C(=O)n1ccc2ccccc21)c1c[nH]c2ccccc12 ... > 10 µM (inactive)
CN(C)C(=S)/N=c1\ss/c(=N\S(=O)(=O)c2ccccc2)n1C ... > 100 µM (inactive)
CC1(C)C=C(/C=C2/N(S(=O)(=O)C(F)(F)F)C(/C=C3/N(S(=O)(=O)C(F)(F)F)C(C)(C#N)CC3(C)C)=CC2(C)C)N=C1/C=C1/CC(C)(C)C(=O)N1 (centres undefined) ... 3.93 µM (inactive)

Please supply GI50 for each of the following items, keeping them in order.
1. COc1ccc2c(c1)CC[C@@H]1[C@@H]2CC[C@]2(C)C(=O)/C(=C/c3cc(OC)c(OC)c(OC)c3)C[C@@H]12
2. Brc1ccc(-c2cc(-c3ccc4c(c3)OCO4)c(-c3cccs3)n2Cc2ccccc2)cc1
3. [N-]=[N+]=Nc1ccc2c(c1)Sc1ccccc1N2CCCCN1CCN(Cc2ccc(C(=O)c3ccccc3)cc2)CC1
4. COc1ccc(-c2cc3c(nn2)-c2ccccc2C3=O)cc1

Response:
1. > 100 µM (inactive)
2. > 100 µM (inactive)
3. 3.86 µM (inactive)
4. > 10 µM (inactive)

Please supply GI50 for each of the following items, keeping them in order.
1. O=C(O)CNc1c2ccccc2[n+]([O-])c2ccccc12
2. [O-][S+](c1ccccc1)C1CC2CC3(CCC21O)OCCO3 (centres undefined)

Response:
31.8 µM (inactive)
> 100 µM (inactive)

====

Field: GI50. Provide a value for each of the molecules that follow.
# System: LXFL 529
# Procedure Text: NCI tumour cell line growth inhibition, 48 h
Activity calls are given as the source filed them. Rule as the data show it: active = GI50 up to about 1.1 µM and inactive = higher.

Here's what some known entries look like.
COc1ccc(-c2cc(O)c3cc4c(cc3n2)OCO4)c(OC)c1OC ... > 100 µM (inactive)
C[C@]12C/C(=C/O)C(=O)C(O)=C1CC[C@@H]1C2CC[C@@]2(C)C1CC[C@@H]2O (stereo not given in full) ... 16.2 µM (inactive)
O=C(O)CNc1c2ccccc2[n+]([O-])c2ccccc12 ... 34.6 µM (inactive)
COc1ccc2c(c1O)C(=O)C(CCC(=O)O)CC2 (stereo not given) ... > 100 µM (inactive)
COc1ccc(C(=O)C(C(=O)CC(=O)Nc2cccc(C(F)(F)F)c2)c2ccc(OC)cc2)cc1 (stereo not given) ... > 100 µM (inactive)
CCNC(=O)CCN(C(=O)O)S(=O)(=O)c1ccc(NC(=O)c2ccccc2)cc1 ... > 100 µM (inactive)
O=C(CSc1ncnc2[nH]cnc12)c1ccccc1 ... > 100 µM (inactive)
NC(=O)CCCC(NCc1c2ccccc2nc2ccccc12)C(=O)O (stereo not given) ... 39.9 µM (inactive)

Please supply GI50 for each of the following items, keeping them in order.
1. CC(C)CCCC(C)[C@H]1CCC2[C@@H]3CCC4Nc5nocc5C[C@]4(C)C3CC[C@@]21C (stereo not given in full)
2. NC(=O)c1ncn2c1NCC1OC2C(O)C1O (stereo not given)

Response:
["11.8 µM (inactive)", "> 100 µM (inactive)"]

====

# System: SN12C
# Procedure Text: NCI tumour cell line growth inhibition, 48 h
Active and inactive are the calls of the source. Cut-off read from the data, not from the text of the source: active = GI50 up to about 1.1 µM and inactive = higher.
Readout Kind: GI50

Here's what some known entries look like.
COC(=O)C(=O)C(C(=O)C(=O)Nc1cc(C)ccc1C)c1nc2ccccc2nc1O (stereo unspecified) ... > 100 µM (inactive)
C#CCOC(=O)C(N)CSSCC(N)C(=O)O (stereo unspecified) ... > 100 µM (inactive)
CC(=O)Oc1c(C)cc(-c2cc(C)c(OC(C)=O)c(C)c2)cc1C ... 47.1 µM (inactive)
S=C1C(CCCOCc2ccccc2)C2CCCC23CC2(CCN13)OCCS2 (stereo unspecified) ... > 10 µM (inactive)

Please supply GI50 for each of the following items, keeping them in order.
1. N#Cc1c(Nc2ccccc2)[n+]([O-])c2ccc(Cl)cc2[n+]1[O-]
2. CCCC(O)C(NC(=O)CCl)C(=O)O (stereo unspecified)
3. CC1(C)CC(/C=C2/OC(=O)c3ccccc32)=C(C(N)=O)C(=O)O1

Response:
1. 4.49 µM (inactive)
2. > 100 µM (inactive)
3. > 100 µM (inactive)

====

# Tested on: BT-549
# Procedure Text: NCI tumour cell line growth inhibition, 48 h
Activity calls are given as the source filed them. No stated cut-off is given here; in the data, active = GI50 up to about 1.1 µM and inactive = higher.
Field: GI50. Provide a value for each of the compounds that follow.

Here's what some known entries look like.
Nc1ncnc2c1ncn2C1OC(COC2C(CO)OC(OC(C(=O)O)C(O)C(OP(=O)(O)O)C(O)C(=O)O)C(O)C2O)C(O)C1O (configuration not stated) ... > 100 µM (inactive)
O=C(NN=C1CCCCC1)NN=C1CCCCC1 ... > 100 µM (inactive)
Cc1cn(CC2=NC3CCCCC3N2)c(=O)[nH]c1=O (configuration not stated) ... > 100 µM (inactive)
O=c1c2c(nc3[nH]ccn13)CCC2 ... > 10 µM (inactive)
Cc1cc(S(=O)(=O)Nc2nnc3ccccn23)c(S)cc1Cl ... > 100 µM (inactive)

Please supply GI50 for each of the following items, keeping them in order.
1. Cc1ccc(SC[C@@]2(C(F)F)NC(=O)NC2=O)cc1
2. CC1(C)[N+]([O-])=[N+]([O-])C1(C)Br (configuration not stated)
3. COc1ccc(-c2cc3c(nn2)-c2ccccc2C3=O)cc1
4. CCCCCC(O)C1C(=O)OC(C)C(O)/C=C/C=C/C=C/C=C\C=C(\C)C(O)CC(O)CC(O)CC(O)CC(O)CC(O)CC1O (configuration not stated)
5. CSc1nc(C)c2c(n1)SCC2

Response:
1: > 100 µM (inactive); 2: > 100 µM (inactive); 3: > 10 µM (inactive); 4: > 50 µM (inactive); 5: > 10 µM (inactive)

Please supply GI50 for each of the following items, keeping them in order.
1. Cc1ccc(N2C(N)=C(C#N)C(C#N)(C#N)C2c2ccccc2)cc1 (configuration not stated)
2. CNC1(c2cc3ccccc3s2)CCCCC1
3. Cc1cc(S(=O)(=O)Nc2nc3ccccc3nc2-c2ccc(Cl)cc2)c(S)cc1Cl
4. C=CCOCn1cc(F)c(=O)[nH]c1=O
5. O=C(O)CC[P+](c1ccccc1)(c1ccccc1)c1ccccc1
6. COc1ccc(C2OC[C@H]3O[C@@H](OCc4ccccc4)[C@H](O)[C@@H](O)[C@@H]3O2)cc1 (some centres not stated)
7. CC(=O)OC1(C)C(=O)OC/C2=C/CN(C)CCC(OC(=O)C(O)(C(C)Cl)CC1C)C2=O.c1ccccc1 (configuration not stated)

Response:
["10.2 µM (inactive)", "67 µM (inactive)", "23.8 µM (inactive)", "> 100 µM (inactive)", "21.1 µM (inactive)", "> 100 µM (inactive)", "> 100 µM (inactive)"]
